study.system: 5-hydroxytryptamine receptor 2C (Homo sapiens) (UniProt P28335)
Sequence (whole entry): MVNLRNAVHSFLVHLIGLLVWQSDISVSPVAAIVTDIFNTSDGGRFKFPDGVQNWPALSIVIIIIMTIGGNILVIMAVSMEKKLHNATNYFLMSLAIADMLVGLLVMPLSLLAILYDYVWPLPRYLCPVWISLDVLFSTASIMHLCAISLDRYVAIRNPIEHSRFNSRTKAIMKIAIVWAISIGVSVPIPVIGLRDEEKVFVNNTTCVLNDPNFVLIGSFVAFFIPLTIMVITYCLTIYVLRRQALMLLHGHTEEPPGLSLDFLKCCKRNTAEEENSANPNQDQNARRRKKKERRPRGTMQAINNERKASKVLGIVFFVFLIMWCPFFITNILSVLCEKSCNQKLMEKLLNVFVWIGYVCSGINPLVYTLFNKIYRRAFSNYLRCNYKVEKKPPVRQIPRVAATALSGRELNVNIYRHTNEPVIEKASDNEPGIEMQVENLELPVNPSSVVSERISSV
assay.context: Compound concentration 10 µM
Description: PDSP Primary Binding target: HTR2C - Compounds are tested at 10 uM concentration, plate are incubated at room temperature in the dark for 90 minutes. Reaction are stopped by vacuum filtration onto 0.3% polyethyleneimine soaked filter mats using Filtermate harvester. Scintilation cocktail is then melted onto microwave-dried filters on a hot plate and the radio activity is counted in Microbia counter.
Rule: inhibition under 20% gives False, otherwise True.

Example results:
{"compound": "COc1ccccc1CN[C@H]1C2CCN(CC2)[C@H]1C(c1ccccc1)c1ccccc1", "class": "False"}
{"compound": "CN1C(=O)[C@@H](NC(=O)c2cc3ccccc3[nH]2)N=C(c2ccccc2)c2ccccc21", "class": "False"}
{"compound": "CN(C)S(=O)(=O)c1ccc(NC(=S)N2CCC(C(O)(c3ccccc3)c3ccccc3)CC2)cc1", "class": "False"}
{"compound": "Cc1cc(C)cc(-c2cnc3cc(Cl)c(-c4cccc(O)c4)cc3c2OCCCN)c1", "class": "True"}
{"compound": "CC(C)(C(=O)O)c1ccc(C(O)CCCN2CCC(C(O)(c3ccccc3)c3ccccc3)CC2)cc1 (centres undefined)", "class": "False"}
{"compound": "N#Cc1ccc2[nH]cc(CCCCN3CCN(c4ccc5oc(C(N)=O)cc5c4)CC3)c2c1", "class": "True"}
{"compound": "CS(=O)(=O)NC[C@H]1CC[C@H](Nc2nc3c(s2)CCSc2ccccc2-3)CC1", "class": "False"}
{"compound": "O=C(Cc1ccccc1)Nc1nc2ccc(Cl)cc2c2nc(-c3ccco3)nn12", "class": "False"}
{"compound": "CN1CCC(=C2c3ccccc3CC(=O)c3sccc32)CC1", "class": "True"}
{"compound": "CCCCc1nc(Cl)c(CO)n1Cc1ccc(-c2ccccc2-c2nnn[nH]2)cc1", "class": "True"}

Below: the item to evaluate.
QUERY: Form field: inhibition at least 20%? Entry: `CN1C[C@H](C(=O)N[C@]2(C)O[C@@]3(O)[C@@H]4CCCN4C(=O)[C@H](Cc4ccccc4)N3C2=O)C[C@@H]2c3cccc4[nH]cc(c34)C[C@H]21`
RESULT: True

----------
study.system: D(3) dopamine receptor (Homo sapiens)
assay.context: Compound concentration 10 µM
Description: PDSP Primary Binding target: DRD3 - Compounds are tested at 10 uM concentration, plate are incubated at room temperature in the dark for 90 minutes. Reaction are stopped by vacuum filtration onto 0.3% polyethyleneimine soaked filter mats using Filtermate harvester. Scintilation cocktail is then melted onto microwave-dried filters on a hot plate and the radio activity is counted in Microbia counter.
The following molecules are listed with their measured inhibition values.

{"compound.smiles": "Cc1nc(-c2ccc(C(F)(F)F)cc2)sc1COc1ccc([C@H](CC(=O)O)c2ccon2)cc1", "study.system": "D(3) dopamine receptor (Homo sapiens)", "result": "42.1%"}
{"compound.smiles": "O=C1N/C(=N/c2ccccc2F)S/C1=C\\c1ccc(C(=O)O)cc1", "study.system": "D(3) dopamine receptor (Homo sapiens)", "result": "5.3%"}
{"compound.smiles": "C=CCN1C[C@H](C)N([C@H](c2ccc(C(=O)N(CC)CC)cc2)c2cccc(O)c2)C[C@H]1C", "study.system": "D(3) dopamine receptor (Homo sapiens)", "result": "6.85%"}
{"compound.smiles": "CO[C@@H]1COCC[C@@H]1N[C@@H]1CC[C@@](C(=O)N2CCc3ncc(C(F)(F)F)cc3C2)(C(C)C)C1", "study.system": "D(3) dopamine receptor (Homo sapiens)", "result": "33.7%"}
{"compound.smiles": "CN1C(=O)[C@@H](NC(=O)c2cc3ccccc3[nH]2)N=C(c2ccccc2)c2ccccc21", "study.system": "D(3) dopamine receptor (Homo sapiens)", "result": "26.4%"}

QUERY: Using the record for `CC(C)(C)NC[C@H](O)COc1nsnc1N1CCOCC1` , report its inhibition.
RESULT: -0.36%

QUERY: Moving on to `NC(=O)[C@@H]1CCCN1C(=O)[C@H](Cc1c[nH]cn1)NC(=O)[C@@H]1CCC(=O)N1`
RESULT: 4.54%

QUERY: Moving on to `CCOC(=O)c1cc(C#N)c(N2CCC(C(=O)NS(=O)(=O)Cc3ccccc3)CC2)nc1C`
RESULT: 50.8%

QUERY: Moving on to `CN1CCC(=C2c3ccccc3CC(=O)c3sccc32)CC1`
RESULT: 80.2%
